These entries and their values trace back to patent US11739098B2.

Would you kindly list IC50 for each of these compounds?
Biological target: human TLR8 (Homo sapiens, UniProt Q9NR97)
Sequence (Q9NR97 27-1041): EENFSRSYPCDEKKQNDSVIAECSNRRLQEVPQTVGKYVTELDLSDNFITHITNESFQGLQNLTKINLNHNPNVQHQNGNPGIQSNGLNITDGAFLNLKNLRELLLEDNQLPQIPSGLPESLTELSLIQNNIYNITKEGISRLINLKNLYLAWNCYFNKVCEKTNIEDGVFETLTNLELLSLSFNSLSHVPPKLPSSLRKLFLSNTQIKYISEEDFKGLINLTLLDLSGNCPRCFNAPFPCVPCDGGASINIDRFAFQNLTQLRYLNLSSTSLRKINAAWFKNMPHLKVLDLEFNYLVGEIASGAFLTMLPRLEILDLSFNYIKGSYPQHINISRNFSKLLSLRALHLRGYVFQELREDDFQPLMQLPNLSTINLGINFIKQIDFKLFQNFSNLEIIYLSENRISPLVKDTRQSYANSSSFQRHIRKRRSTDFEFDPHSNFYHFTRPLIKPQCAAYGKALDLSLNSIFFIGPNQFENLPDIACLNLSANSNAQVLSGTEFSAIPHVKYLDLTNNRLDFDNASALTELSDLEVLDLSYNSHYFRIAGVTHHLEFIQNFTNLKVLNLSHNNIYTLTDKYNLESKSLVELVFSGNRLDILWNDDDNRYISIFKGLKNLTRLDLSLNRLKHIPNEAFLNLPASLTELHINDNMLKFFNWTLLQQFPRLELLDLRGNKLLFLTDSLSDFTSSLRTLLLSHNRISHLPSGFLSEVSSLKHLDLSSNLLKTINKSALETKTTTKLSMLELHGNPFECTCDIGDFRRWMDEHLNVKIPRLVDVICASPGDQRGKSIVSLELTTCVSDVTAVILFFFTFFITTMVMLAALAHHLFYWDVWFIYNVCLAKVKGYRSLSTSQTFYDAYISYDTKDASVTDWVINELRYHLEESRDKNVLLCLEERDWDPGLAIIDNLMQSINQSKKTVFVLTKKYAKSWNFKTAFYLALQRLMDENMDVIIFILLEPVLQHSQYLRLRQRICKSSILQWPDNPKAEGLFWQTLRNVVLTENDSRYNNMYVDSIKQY
Assay: TLR8 inhibition reporter assay (HEK-Blue cells, SEAP reporter, R848 stimulation)
Conditions: HEK-Blue cells overexpressing human TLR8, SEAP reporter, R848 15.9 μM

What value of measured IC50 is listed for CC(C)c1c(-c2ccnc3c2ncn3C)[nH]c2ccc(C3CCNCC3)cc12 [Example 45] ? 100 to 1000 nM

Param item = CCc1c(-c2ccnc3[nH]ncc23)[nH]c2ccc(C3CCN(Cc4ncco4)CC3)cc12 ; retrieve measured IC50. 100 to 1000 nM

Quick one: IC50 of CNCCN1CCC(c2ccc3[nH]c(-c4ccc5nccn5c4)c(CC(F)F)c3c2)CC1 ? < 100 nM

May I ask what IC50 has been recorded for Cc1cc(-c2[nH]c3ccc(C4CCN(C(=O)CN(C)C5CC5)CC4)cc3c2C(C)C)cn2nnnc12 ? < 100 nM

What measured IC50 goes with Cc1c(-c2ccc3[nH]nnc3c2)[nH]c2ccc(C3CCNCC3)cc12 ? 1000 to 50000 nM

Which value of IC50 has been reported for COc1cc(-c2[nH]c3ccc(C4CCN(CC(C)(C)O)CC4)cc3c2C(C)C)cn2ccnc12 in the records? < 100 nM

Form field: reported IC50 of Cc1cc2ncccc2cc1-c1[nH]c2ccc(C3CCNCC3)cc2c1C(C)C 100 to 1000 nM

Endpoint output: IC50 of CCc1c(-c2ccnc3[nH]ncc23)[nH]c2ccc(C3CCN(C4CCN(C(C)C)CC4)CC3)cc12 . Value? < 100 nM

IC50 lookup needed for CC(C)c1c(-c2ccc3nc(N)cn3n2)[nH]c2ccc(C3CCNCC3)cc12 , thanks. 1000 to 50000 nM

What value of IC50 has been reported for the following compound? Cc1cc2cc(-c3[nH]c4ccc(C5CCNCC5)cc4c3C(C)C)cc(CC(C)C)n2n1 > 3130 nM

For the compound CC(C)c1c(-c2ccnc3[nH]ncc23)[nH]c2ccc(C3CCN(C(=O)CN(C)C)CC3)cc12 , what IC50 is on record? < 100 nM

Which IC50 value is on record for Cc1cc(-c2[nH]c3ccc(C4CCN(Cc5cnn[nH]5)CC4)cc3c2C(C)C)cn2nnnc12 ? < 100 nM

Reported IC50 for Cc1c(-c2ccnc3[nH]ccc23)[nH]c2ccc(C3CCN(C4CCN(C(C)C)CC4)CC3)cc12 : what is it? < 100 nM

If you can, please state the reported IC50 value of Cc1cc(-c2[nH]c3ccc(C4CCNCC4)cc3c2C(C)C)nc2scnc12 . < 100 nM

Sample CC(C)c1c(-c2ccc(C#N)c3ncccc23)[nH]c2ccc(C3CCNCC3)cc12 — what was its IC50? < 100 nM

Requested field: IC50. Item: Cc1cn2cc(-c3[nH]c4ccc(C5CCN(C(=O)CC(C)(C)O)CC5)cc4c3C(C)C)c(C)cc2n1 > 3130 nM

---

Biological target: human TLR7 (Homo sapiens)
Sequence (Q9NYK1 27-1049): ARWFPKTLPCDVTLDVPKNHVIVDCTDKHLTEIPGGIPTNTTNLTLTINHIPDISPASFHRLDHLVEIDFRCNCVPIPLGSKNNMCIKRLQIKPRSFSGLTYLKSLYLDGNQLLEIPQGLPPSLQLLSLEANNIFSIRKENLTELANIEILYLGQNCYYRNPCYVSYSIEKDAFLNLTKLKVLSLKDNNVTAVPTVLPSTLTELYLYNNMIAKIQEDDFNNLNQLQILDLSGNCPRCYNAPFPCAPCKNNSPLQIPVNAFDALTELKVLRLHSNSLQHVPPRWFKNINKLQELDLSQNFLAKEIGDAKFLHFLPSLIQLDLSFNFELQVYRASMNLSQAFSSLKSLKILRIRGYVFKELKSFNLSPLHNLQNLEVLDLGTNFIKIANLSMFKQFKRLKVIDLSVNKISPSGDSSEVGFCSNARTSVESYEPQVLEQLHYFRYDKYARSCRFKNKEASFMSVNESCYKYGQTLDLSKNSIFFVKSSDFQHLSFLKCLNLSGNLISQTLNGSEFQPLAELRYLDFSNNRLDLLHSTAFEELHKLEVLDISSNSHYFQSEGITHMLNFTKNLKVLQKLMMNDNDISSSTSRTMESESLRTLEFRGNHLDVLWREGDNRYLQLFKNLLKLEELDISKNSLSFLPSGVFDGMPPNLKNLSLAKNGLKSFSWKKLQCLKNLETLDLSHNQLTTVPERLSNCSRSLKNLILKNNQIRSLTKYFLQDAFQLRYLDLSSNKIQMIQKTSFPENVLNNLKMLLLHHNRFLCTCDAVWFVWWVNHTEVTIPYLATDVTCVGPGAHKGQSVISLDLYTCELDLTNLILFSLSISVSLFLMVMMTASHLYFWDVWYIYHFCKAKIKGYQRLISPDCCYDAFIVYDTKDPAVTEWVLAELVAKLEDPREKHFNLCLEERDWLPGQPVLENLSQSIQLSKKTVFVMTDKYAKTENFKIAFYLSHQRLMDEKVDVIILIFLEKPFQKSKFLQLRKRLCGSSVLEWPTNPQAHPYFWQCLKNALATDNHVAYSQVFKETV
Assay: TLR7 inhibition reporter assay (HEK-Blue cells, SEAP reporter, gardiquimod stimulation)
Conditions: HEK-Blue cells overexpressing human TLR7, SEAP reporter, gardiquimod 7.5 μM
For each entry below, report its IC50 value.

Query (compound): CCOc1cc(-c2[nH]c3ccc(C4CCN(C(=O)CN(C)C)CC4)cc3c2C(C)C)cc2nc(C)nn12 ; field requested: IC50 < 0.1 µM

Which IC50 reading was recorded for the compound CCC(C)NCC(=O)N1CCC(c2ccc3[nH]c(-c4ccnc5[nH]ncc45)c(C(C)C)c3c2)CC1 (stereo not shown) ? < 0.1 µM

Endpoint output: IC50 of CN(C)CC(=O)N1CCC(c2ccc3[nH]c(-c4ccnc5[nH]ncc45)c(CC(F)F)c3c2)CC1 . Value? 0.1 to 1 µM

So what does the record say about IC50 for CC(C)c1c(-c2ccnc3[nH]ncc23)[nH]c2ccc(C3CCN(C4CCNCC4O)CC3)cc12 (stereo not shown) ? < 0.1 µM
